Tested on: KDM5A (1)
TEST DETAILS: Histone peptide microarray
Type: binding, human
CONDITIONS USED: KDM5A (1), GST-tagged; arrays performed twice, n of 4
Where no end group is shown, it is not given here. [ ]: non-standard residue; d: D form. pS = N[C@@H](COP(=O)(O)O)C(=O)O
ENDPOINT LABEL: Array Heatmap value (peptide array binding signal)

H2AX (132-142): H2AX 132-142 (GKKATQASQEY; UniProt P16104 133-143, looked up, fragment) | 0.4587
H2A.Z K4ac + K8ac + K12ac (1-19) (N-ac): H2AZ 1-19 (Ac-AGGKAGKDSGKAKTKAVSR; not fully specified (residue 4); UniProt P0C0S5 2-20, looked up, fragment) | 0.5365
H2AS1p + K5ac: H2A 1-17 ([pS]GRGK(Ac)QGGKARAKAKTR; UniProt P0C0S8 2-18, looked up, fragment) | 0.3412
Myc-Tag: 1-10 (ILKKATAYIL; Myc epitope tag; UniProt P01106 410-419, looked up, fragment) | 0.4279
